# Protocol Notes: Aqueous solubility of the compound in pH 7.0 phosphate buffer at 2 mg incubated for 72 hrs by shake flask method
# Assay type: physicochemical
Could you label it condition met if measured solubility thermodynamic at 72 h is 6 µg/mL or higher, and condition not met otherwise?

Take a look at these entries with their results.
1) CSc1cc(C(=O)c2ccc(N(C)C)nc2)cc(SC)n1
condition met
2) C=C(c1cc(Cl)nc(SC)c1)c1ccc2c(ccn2C)c1
condition met

Please examine the following record next.
Enquiry: Does solubility thermodynamic at 72 h meet or surpass 6 µg/mL for C=C(c1ccc(OC)cc1)c1cc(Cl)nc(SC)c1 ?
Return: condition met

====

# Protocol Notes: Aqueous solubility of the compound in pH 7.0 phosphate buffer at 2 mg incubated for 72 hrs by shake flask method
# Type: physicochemical
Below: a set of entries, each annotated with reported solubility thermodynamic at 72 h.
Please reply with the bare figure in µg/mL and do not write the unit itself.

Guide cases for solubility thermodynamic at 72 h, answers given:
1) CSc1cc(C(=O)c2cccc(N(C)C)c2)cc(SC)n1
1.3
2) CSc1cc(C(=NO)c2ccc(N(C)C)cc2)cc(SC)n1
1.1
3) C=C(c1cc(SC)nc(SC)c1)c1ccc2c(c1)c(C=O)cn2C
7.6
4) CSc1cc(C(=NO)c2ccc3c(ccn3C)c2)cc(Cl)n1
14.8
5) COc1ccc(C(=O)c2cc(SC)nc(SC)c2)cc1
1.5
6) CSc1cc(C(=NO)c2ccc3c(c2)c(C#N)cn3C)cc(Cl)n1
5.1
7) C=C(c1cc(Cl)nc(SC)c1)c1ccc2c(c1)c(C=O)cn2C
6.3
8) C=C(c1cc(SC)nc(SC)c1)c1ccc2ccccc2c1
1.9

Enquiry: Give recorded solubility thermodynamic at 72 h. C=C(c1ccc(OC)cc1)c1cc(SC)nc(SC)c1
Return: 35.7

Enquiry: Give recorded solubility thermodynamic at 72 h. C=C(c1cc(SC)nc(SC)c1)c1ccc2c(c1)c(C#N)cn2C
Return: 46.3

Enquiry: Give recorded solubility thermodynamic at 72 h. C=C(c1cc(SC)nc(SC)c1)c1ccc2c(c1)c(C(=O)O)cn2C
Return: 103

Enquiry: Give recorded solubility thermodynamic at 72 h. CSc1cc(C(=NO)c2cccc(N(C)C)c2)cc(SC)n1
Return: 14.7
